Test Name: Human Phase 0 three-way crossover microdose pharmacokinetic study of 14C-labelled M4N (AMS)
Assay type: in vivo
Settings: single intravenous dose 100 μg in 30% HP-β-CD, 25% PEG; mean±SD; read-out: Cmax for total 14C
Reported Property: Cmax (nM)
Give just the numeric value; nM need not be written.

Write down Cmax measured for item COc1ccc(C[C@@H](C)[C@@H](C)Cc2ccc(OC)c(OC)c2)cc1OC
0.0103

---

Test Name: Human Phase 0 three-way crossover microdose pharmacokinetic study of 14C-labelled M4N (AMS)
Type: in vivo
Settings: Regimen A (oral, fed): 100 μg single oral dose following a high fat breakfast; 14C, baseline corrected; mean ± SD; read-out: Cmax
Reported Property: Cmax (pM)
Give just the numeric value; pM need not be written.

Write down Cmax measured for item COc1ccc(C[C@@H](C)[C@@H](C)Cc2ccc(OC)c(OC)c2)cc1OC
5.94

---

Test Name: Human Phase 0 three-way crossover microdose pharmacokinetic study of 14C-labelled M4N (AMS)
Assay type: in vivo
Settings: Regimen B (oral, fasted): 100 μg single oral dose following an overnight fast; 14C, baseline corrected; mean ± SD; read-out: Cmax
Reported Property: Cmax

Write down Cmax measured for item COc1ccc(C[C@@H](C)[C@@H](C)Cc2ccc(OC)c(OC)c2)cc1OC
9.29 pM

---

Test Name: Human Phase 0 three-way crossover microdose pharmacokinetic study of 14C-labelled M4N (AMS)
Format: in vivo
Settings: oral 100 μg 14C-labelled M4N after an overnight fast; mean±SD; read-out: Cmax for total 14C
Reported Property: Cmax (pM)
Give just the numeric value; pM need not be written.

Write down Cmax measured for item COc1ccc(C[C@@H](C)[C@@H](C)Cc2ccc(OC)c(OC)c2)cc1OC [Formulation M4N]
9.29
